Activity values for the compounds below.
test system: HL-60; assay: Antiproliferative activity against human HL60 cell line at 0.01 umol/L by MTT method; format: functional
The reply should contain only the number, in %.

Examples with their reported Activity follow.
FC(F)(F)c1ccc(-c2nnc(-c3ccc(C(F)(F)F)cc3)nn2)cc1    0
c1ccc(-c2nnc(-c3ccccc3)nn2)cc1    0
c1ccc(C2=NNC(c3ccccc3)=NN2)cc1    17.2
Clc1ccc(-c2nnc(-c3ccc(Cl)cc3)nn2)cc1    0
Clc1ccc(Cc2nnc(Cc3ccc(Cl)cc3)nn2)cc1    7.6

input: I would be grateful if you could share the reported Activity for `Cc1cccnc1-c1nnc(-c2ncccc2C)nn1` .
output: 4.2

input: # repeat for `Cc1cccnc1C1=NN=C(c2ncccc2C)NN1`
output: 17.2

###

test system: P388; experiment: Antiproliferative activity against mouse P388 cell line at 0.01 umol/L by MTT method; type: functional
measuredMetric: Activity (%)
The reply should contain only the number, in %.

Examples with their reported Activity follow.
c1ccc(C2=NNC(c3ccccc3)=NN2)cc1    0
c1ccc(-c2nnc(-c3ccccc3)nn2)cc1    0
Oc1ccc(Cl)cc1C1=NN=C(c2cc(Cl)ccc2O)NN1    0

input: Record `FC(F)(F)c1ccc(C2=NN=C(c3ccc(C(F)(F)F)cc3)NN2)cc1` : what is its Activity with P388?
output: 9.1

input: # repeat for `FC(F)(F)c1ccc(-c2nnc(-c3ccc(C(F)(F)F)cc3)nn2)cc1`
output: 0

input: # repeat for `Cc1cccnc1-c1nnc(-c2ncccc2C)nn1`
output: 0

input: # repeat for `Clc1ccc(CC2=NNC(Cc3ccc(Cl)cc3)=NN2)cc1`
output: 0

input: # repeat for `Clc1ccccc1-c1nnc(-c2ccccc2Cl)nn1`
output: 0

input: # repeat for `Clc1ccc(-c2nnc(-c3ccc(Cl)cc3)nn2)cc1`
output: 0

input: # repeat for `Clc1ccc(Cc2nnc(Cc3ccc(Cl)cc3)nn2)cc1`
output: 8.7

input: # repeat for `Clc1ccc(C2=NN=C(c3ccc(Cl)cc3)NN2)cc1`
output: 4.9

input: # repeat for `Oc1ccc(Cl)cc1-c1nnc(-c2cc(Cl)ccc2O)nn1`
output: 82.8

input: # repeat for `Cc1cccnc1C1=NN=C(c2ncccc2C)NN1`
output: 0

###

test system: Bel-7402; experiment: Antiproliferative activity against human BEL-7402 cell line at 100 umol/L by SRB method; type: functional
measuredMetric: Activity (%)
The reply should contain only the number, in %.

Clc1ccc(Cc2nnc(Cc3ccc(Cl)cc3)nn2)cc1    61.2
Cc1cccnc1-c1nnc(-c2ncccc2C)nn1    93
c1ccc(C2=NNC(c3ccccc3)=NN2)cc1    54

input: I would be grateful if you could share the reported Activity for `Cc1cccnc1C1=NN=C(c2ncccc2C)NN1` .
output: 94.9

input: # repeat for `Clc1ccc(-c2nnc(-c3ccc(Cl)cc3)nn2)cc1`
output: 27.4

input: # repeat for `FC(F)(F)c1ccc(-c2nnc(-c3ccc(C(F)(F)F)cc3)nn2)cc1`
output: 21.3

input: # repeat for `c1ccc(-c2nnc(-c3ccccc3)nn2)cc1`
output: 41.7

###

test system: P388; assay: Antiproliferative activity against mouse P388 cell line at 10 umol/L by MTT method; type: functional
Rule: Criterion met for Activity not less than 2%, Criterion not met for anything less.

# count of solved cases: 5
FC(F)(F)c1ccc(-c2nnc(-c3ccc(C(F)(F)F)cc3)nn2)cc1    Criterion met
c1ccc(-c2nnc(-c3ccccc3)nn2)cc1    Criterion not met
Clc1ccc(CC2=NNC(Cc3ccc(Cl)cc3)=NN2)cc1    Criterion met
Clc1ccc(-c2nnc(-c3ccc(Cl)cc3)nn2)cc1    Criterion not met
Oc1ccc(Cl)cc1-c1nnc(-c2cc(Cl)ccc2O)nn1    Criterion met

input: Reported Activity reaches at least 2% for `Clc1ccc(Cc2nnc(Cc3ccc(Cl)cc3)nn2)cc1` ?
output: Criterion met

input: # repeat for `Cc1cccnc1C1=NN=C(c2ncccc2C)NN1`
output: Criterion not met

input: # repeat for `Clc1ccc(C2=NN=C(c3ccc(Cl)cc3)NN2)cc1`
output: Criterion met

input: # repeat for `FC(F)(F)c1ccc(C2=NN=C(c3ccc(C(F)(F)F)cc3)NN2)cc1`
output: Criterion met

input: # repeat for `Oc1ccc(Cl)cc1C1=NN=C(c2cc(Cl)ccc2O)NN1`
output: Criterion not met

input: # repeat for `c1ccc(C2=NNC(c3ccccc3)=NN2)cc1`
output: Criterion met

input: # repeat for `Cc1cccnc1-c1nnc(-c2ncccc2C)nn1`
output: Criterion not met

input: # repeat for Clc1ccccc1-c1nnc(-c2ccccc2Cl)nn1 [CLOFENTEZINE]
output: Criterion not met
